# targetSystem: chymotrypsin-like activity of the 20S proteasome (Homo sapiens, UniProt P20618+P28074)
# Construct: purified human placenta 20S proteasome; tissue Diabetes Forschungsinstitut, Düsseldorf, Germany; host or cells: human placenta
# assayProcedure: Inhibition of the chymotrypsin-like activity of the 20S proteasome (Suc-LLVY-AMC hydrolysis)
# Format: biochemical
# testContext: purified human placenta 20S proteasome, Suc-LLVY-AMC substrate, read-out: IC50 [μM] (results of one or two experiments)
valueType: IC50 (µM)
Reply numerically in µM, unit not repeated.

COc1ccc(C[C@H](Nc2cccc(-c3ccccc3)c2)C(=O)N[C@@H](C)C(=O)N[C@@H](CC(C)C)B(O)O)cc1	0.0019
COc1ccc(C[C@H](Nc2cccc(-c3ccccc3)c2)C(=O)N[C@@H](C)C(=O)N[C@@H](CC(C)C)B2O[C@@H]3C[C@@H]4C[C@@H](C4(C)C)[C@]3(C)O2)cc1	0.0012
COc1ccc(C[C@H](Nc2cccc(-c3ccccc3)c2)C(=O)N[C@@H](C)C(=O)N[C@@H](CC(C)C)B(O)O)cc1OC	0.001

Entry "COc1cc(C[C@H](Nc2cccc(-c3ccccc3)c2)C(=O)N[C@@H](CC(C)C)C(=O)N[C@@H](CC(C)C)B(O)O)cc(OC)c1OC" has what IC50?
0.0037

Follow-up item: "COc1ccc(C[C@H](Nc2cccc(-c3ccccc3)c2)C(=O)N[C@H](C(=O)N[C@@H](Cc2ccccc2)B2O[C@@H]3C[C@@H]4C[C@@H](C4(C)C)[C@]3(C)O2)C(C)C)cc1"
0.0043

Follow-up item: "COc1ccc(C[C@H](NC(=O)CCc2ccccc2)C(=O)N[C@@H](C)C(=O)N[C@@H](CC(C)C)B(O)O)c(OC)c1OC"
0.0007
